Quick list: OD 450 nm per entry.
target-desc: T1, Antigen CD66c (CEACAM6; Sino Biological, Inc.) (UniProt P40199 35-320)
T1 construct: Bought antigen, coated on the ELISA plate; construct not described; also called CECACAM6 (CD66c) antigen; CD66c antigen
T1 sequence (looked up): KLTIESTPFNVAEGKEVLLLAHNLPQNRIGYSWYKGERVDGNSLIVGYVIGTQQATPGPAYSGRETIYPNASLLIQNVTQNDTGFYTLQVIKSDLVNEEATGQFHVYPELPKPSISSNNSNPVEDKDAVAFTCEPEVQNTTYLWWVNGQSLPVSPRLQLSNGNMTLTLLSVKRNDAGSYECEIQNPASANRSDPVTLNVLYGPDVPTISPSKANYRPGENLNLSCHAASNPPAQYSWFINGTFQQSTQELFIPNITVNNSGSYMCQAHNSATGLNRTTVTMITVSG
assay-details: ELISA, CEACAM6 coated 100 ng/well, antibody at 10000.00 ng/ml
A number alone suffices; assume OD 450 nm.

Example entries begin here.
{"binder": "recombinant humanized anti-CD66c antibody Protein ID 3007 (Vk7 + VH6) (antibody, human IgG1, V domains shown, also called hu 3007; #43) VH: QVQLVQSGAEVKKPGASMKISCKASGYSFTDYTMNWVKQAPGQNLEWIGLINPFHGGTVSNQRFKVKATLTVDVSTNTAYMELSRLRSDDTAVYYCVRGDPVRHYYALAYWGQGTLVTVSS VL: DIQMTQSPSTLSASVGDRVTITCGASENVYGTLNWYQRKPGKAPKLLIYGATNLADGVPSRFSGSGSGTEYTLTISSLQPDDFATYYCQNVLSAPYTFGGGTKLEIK", "OD 450 nm, OD 450 nm": 3.37}
{"binder": "anti-CD66c chimeric antibody 8F5 (antibody, human IgG1, V domains shown, also called chimeric 8F5; chi 8F5) VH: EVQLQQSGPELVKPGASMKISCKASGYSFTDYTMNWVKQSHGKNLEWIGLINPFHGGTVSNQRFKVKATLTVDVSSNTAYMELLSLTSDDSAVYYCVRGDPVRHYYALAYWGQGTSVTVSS VL: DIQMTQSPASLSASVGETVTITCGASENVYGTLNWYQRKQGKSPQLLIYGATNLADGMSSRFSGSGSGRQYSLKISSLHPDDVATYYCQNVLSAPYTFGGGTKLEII", "OD 450 nm, OD 450 nm": 3.17}

// moving on: another record for OD 450 nm
Problem: Recorded OD 450 nm for recombinant humanized anti-CD66c antibody Protein ID 3043 (Vk8 + VH6) (antibody, V domains shown, also called hu 3043; #71) VH: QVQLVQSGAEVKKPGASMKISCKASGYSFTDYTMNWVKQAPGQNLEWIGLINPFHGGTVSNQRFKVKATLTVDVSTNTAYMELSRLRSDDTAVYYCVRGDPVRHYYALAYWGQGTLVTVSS VL: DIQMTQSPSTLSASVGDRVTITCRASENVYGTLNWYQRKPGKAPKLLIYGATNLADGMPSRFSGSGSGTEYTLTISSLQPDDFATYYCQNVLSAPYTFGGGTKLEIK , please?
Result: 2.73
